The reported measurements were obtained from patent US10064861B2.

pIC50: −log10 of the molar value.
Parameter pIC50, tested on IRAK4 (Homo sapiens (Human), UniProt Q9NWZ3), listed per item.
Sequence (Q9NWZ3 whole entry): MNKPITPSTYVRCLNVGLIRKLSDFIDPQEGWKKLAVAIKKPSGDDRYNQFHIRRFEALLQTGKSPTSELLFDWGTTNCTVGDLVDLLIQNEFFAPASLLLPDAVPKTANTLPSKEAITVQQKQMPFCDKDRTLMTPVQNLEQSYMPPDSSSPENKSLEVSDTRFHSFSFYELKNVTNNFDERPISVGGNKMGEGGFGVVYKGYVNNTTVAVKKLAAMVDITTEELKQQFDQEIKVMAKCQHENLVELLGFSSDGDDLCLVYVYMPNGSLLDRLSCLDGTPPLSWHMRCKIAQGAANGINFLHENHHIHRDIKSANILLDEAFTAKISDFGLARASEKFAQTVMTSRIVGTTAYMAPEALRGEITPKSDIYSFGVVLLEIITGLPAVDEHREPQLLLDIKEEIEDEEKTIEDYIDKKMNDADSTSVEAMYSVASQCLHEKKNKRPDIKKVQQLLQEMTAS

Consider the following illustrative entries.
[
  {
    "compound": "Cc1cc(=O)n2nc1-c1cnn(c1)CCn1c(nc3ccccc31)NC(=O)c1cccc(c1)C2",
    "result": "> 7.00"
  },
  {
    "compound": "O=C1Nc2nc3ccccc3n2CCc2cc(ccc2O)-c2ccc(=O)n(n2)Cc2cccc1c2",
    "result": "> 7.00"
  },
  {
    "compound": "CC[C@H]1c2cccc(c2)C(=O)Nc2nc3ccccc3n2Cc2cccc(c2)-c2ccc(=O)n1n2 [Compound 36a]",
    "result": "> 7.00"
  },
  {
    "compound": "COc1cc2nc3n(c2cc1OC)Cc1cccc(c1)-c1ccc(=O)n(n1)Cc1cccc(c1)C(=O)N3",
    "result": "> 7.00"
  },
  {
    "compound": "CC(=O)NCCc1ccc2c(c1)nc1n2Cc2cccc(c2)-c2ccc(=O)n(n2)Cc2cccc(c2)C(=O)N1",
    "result": "> 7.00"
  }
]

# get_value(readout= pIC50, system= IRAK4 (Homo sapiens (Human), UniProt Q9NWZ3)) for O=C1Nc2nc3ccccc3n2C[C@H](O)[C@@H]2CCCN(C2)c2ccc(=O)n(n2)Cc2cccc1c2 (stereo in doubt) [Compound 32a]
> 7.00

# get_value(readout= pIC50, system= IRAK4 (Homo sapiens (Human), UniProt Q9NWZ3)) for CC[C@@H]1c2cccc(c2)C(=O)Nc2nc3ccccc3n2Cc2cccc(c2)-c2ccc(=O)n1n2 [Compound 36b]
6.00 to 7.00
